# assay-summary: Gravimetric vapour sorption (GVS), water vapour adsorption
# Type: physicochemical
# recorded-conditions: 60 % RH
measure-name: Water Adsorption (wt %)

| molecule | measure-name | units-of-measure | reported-value |
| --- | --- | --- | --- |
| CCCCC1=NC2(CCCC2)C(=O)N1Cc1ccc(-c2ccccc2-c2nnn[nH]2)cc1 [Sample B, irbesartan] | Water Adsorption | wt % | 0.18 |
| CCCCC1=NC2(CCCC2)C(=O)N1Cc1ccc(-c2ccccc2-c2nnn[nH]2)cc1 [Sample A, irbesartan] | Water Adsorption | wt % | 0.34 |
| CCCCC1=NC2(CCCC2)C(=O)N1Cc1ccc(-c2ccccc2-c2nnn[nH]2)cc1 [Sample D, irbesartan] | Water Adsorption | wt % | 0.39 |
| CCCCC1=NC2(CCCC2)C(=O)N1Cc1ccc(-c2ccccc2-c2nnn[nH]2)cc1 [Sample C, irbesartan] | Water Adsorption | wt % | 0.21 |

---

# assay-summary: Particle size profile of irbesartan samples
# Type: physicochemical
# recorded-conditions: 50 % of particles smaller
measure-name: D (v, 0.5) particle size (μm)

| compound | measure-name | reported-value |
| --- | --- | --- |
| CCCCC1=NC2(CCCC2)C(=O)N1Cc1ccc(-c2ccccc2-c2nnn[nH]2)cc1 [Sample B, irbesartan] | D (v, 0.5) particle size | 3 |
| CCCCC1=NC2(CCCC2)C(=O)N1Cc1ccc(-c2ccccc2-c2nnn[nH]2)cc1 [Sample A, irbesartan] | D (v, 0.5) particle size | 3 |
| CCCCC1=NC2(CCCC2)C(=O)N1Cc1ccc(-c2ccccc2-c2nnn[nH]2)cc1 [Sample C, irbesartan] | D (v, 0.5) particle size | 5 |
| CCCCC1=NC2(CCCC2)C(=O)N1Cc1ccc(-c2ccccc2-c2nnn[nH]2)cc1 [Sample D, irbesartan] | D (v, 0.5) particle size | 3 |

---

# assay-summary: Water surface area from GVS data, Excess Surface Work (ESW) model
# Format: physicochemical
# recorded-conditions: ESW adsorption model, GVS adsorption runs

| compound | Water Surface Area (WSA) (m^2/g) |
| --- | --- |
| CCCCC1=NC2(CCCC2)C(=O)N1Cc1ccc(-c2ccccc2-c2nnn[nH]2)cc1 [Sample A, irbesartan] | 6.7 |
| CCCCC1=NC2(CCCC2)C(=O)N1Cc1ccc(-c2ccccc2-c2nnn[nH]2)cc1 [Sample B, irbesartan] | 3.0 |
| CCCCC1=NC2(CCCC2)C(=O)N1Cc1ccc(-c2ccccc2-c2nnn[nH]2)cc1 [Sample D, irbesartan] | 6.5 |
| CCCCC1=NC2(CCCC2)C(=O)N1Cc1ccc(-c2ccccc2-c2nnn[nH]2)cc1 [Sample C, irbesartan] | 4.3 |

---

# assay-summary: Gravimetric vapour sorption (GVS), water vapour adsorption
# Format: physicochemical
# recorded-conditions: 15 % RH
Listing of recorded Water Adsorption by entry.

| compound | Water Adsorption (wt %) |
| --- | --- |
| CCCCC1=NC2(CCCC2)C(=O)N1Cc1ccc(-c2ccccc2-c2nnn[nH]2)cc1 [Sample C, irbesartan] | 0.08 |
| CCCCC1=NC2(CCCC2)C(=O)N1Cc1ccc(-c2ccccc2-c2nnn[nH]2)cc1 [Sample D, irbesartan] | 0.13 |
| CCCCC1=NC2(CCCC2)C(=O)N1Cc1ccc(-c2ccccc2-c2nnn[nH]2)cc1 [Sample A, irbesartan] | 0.12 |
| CCCCC1=NC2(CCCC2)C(=O)N1Cc1ccc(-c2ccccc2-c2nnn[nH]2)cc1 [Sample B, irbesartan] | 0.06 |
